- Tested on: L1210
- ASSAY SUMMARY: Antiproliferative activity against mouse L1210 cells after 72 hrs
- Format: functional, cell-based
- CONDITION: L1210, 72 h
pIC50: −log10 of the molar value.

| SMILES CODE | pIC50 |
| --- | --- |
| CC[C@@H]1NC(=O)c2[nH]c3ccccc3c2-c2ccccc21 | 7.47 |

====

- Test system: A549
- ASSAY SUMMARY: Antiproliferative activity against human A549 cells after 72 hrs
- Format: functional, cell-based
- CONDITION: A549, 72 h
pIC50: −log10 of the molar value.
MEASURED PARAMETER: pIC50

| MOLECULE | RECORDED NUMBER |
| --- | --- |
| CC[C@@H]1NC(=O)c2[nH]c3ccccc3c2-c2ccccc21 | 7.30 |
| COc1cc2c(c(OC)c1OC)-c1ccc(O)cc1[C@@H](NC(C)=O)CC2 [N-ACETYLCOLCHINOL] | 6.60 |
